Tested on: NOMO1
Experiment: cell viability relative to DMSO control; higher = less cytotoxic
Conditions: RPMI 5 mM glucose + 10% dialyzed FBS; 48 h; 0.000781 µM
Assay endpoint: cell viability (%)
Please respond with the number in % and leave the unit unwritten.

-- ask Item under review: Cc1cccc(Nc2nc(-c3ccncc3)cs2)c1 . Reported cell viability?
-- reply 122

-- ask And what about the molecule CC/1=C(/N2[C@H](SC1)[C@H](NC(=O)[C@H](N)\C3=C\C\C=C/C3)C2=O)C(O)=O ?
-- reply 102

-- ask // repeat for O=C1c2c(O)ccc(O)c2C(=O)c2c(NCCNCCO)ccc(NCCNCCO)c21 and report
-- reply 107

-- ask And for O=C(Nc1ccc(F)c(C(F)(F)F)c1)Nc1nnc(-c2ccncc2)s1 ?
-- reply 119

-- ask Thanks! And C[C@@H]\1CC(=O)N\N=C1C2=CC=C(NN=C(C#N)C#N)C=C2 ?
-- reply 85.3

-- ask Quick one: Cc1cc(C(C)(C)C)c(O)c(C)c1CC1=NCCN1
-- reply 78

-- ask Please answer likewise for Cc1cnc(NC(=O)Nc2cc(Br)c(C)cc2OC[C@@H]2CNCCO2)cn1
-- reply 111

---

Reported cell viability by item:
Test system: P12-Ichikawa
Experiment: cell viability relative to DMSO control; higher = less cytotoxic
Conditions: RPMI 5 mM glucose + 10% dialyzed FBS; 48 h; 0.0211 µM
Answer with a number only, understood to be in %.

Record excerpt, results attached:
Compound	Unit abbrev	Test result
C[C@]1(c2nc3c(C(N)=O)cccc3[nH]2)CCCN1	%	81.4
C[C@@H]1[C@H](O)[C@@H](C)/C=C/C=C/C=C/C=C/C=C/C=C/C=C/[C@H](O[C@@H]2O[C@H](C)[C@@H](O)[C@H](N)[C@@H]2O)C[C@@H]2O[C@](O)(C[C@@H](O)C[C@@H](O)[C@H](O)CC[C@@H](O)C[C@@H](O)CC(=O)O[C@H]1C)C[C@H](O)[C@H]2C(=O)O	%	110
S=P(N1CC1)(N1CC1)N1CC1	%	91.7
CC(C)C(=O)Oc1ccc(CO)cc1[C@H](CCN(C(C)C)C(C)C)c1ccccc1	%	80.1
COC1=C2OC(=O)\C=C/C2=CC3=C1OC=C3	%	125
O=C1c2c(O)ccc(O)c2C(=O)c2c(NCCNCCO)ccc(NCCNCCO)c21	%	106
COC(=O)[C@@H]1[C@H]2C[C@H]3c4[nH]c5ccccc5c4CCN3C[C@@H]2CC[C@@H]1O	%	124
COc1ncc(-c2ccc3nccc(-c4ccnnc4)c3c2)cc1N[S+](=O)([O-])c1ccc(F)cc1F	%	97.3

-- ask Tell me the measured cell viability of O=C(Nc1ccccc1-c1cn2c(CN3CCNCC3)csc2n1)c1cnc2ccccc2n1 , please.
-- reply 80.5

-- ask Follow-up entry: C=C(C)[C@H]1Cc2c(ccc3c2O[C@@H]2COc4cc(OC)c(OC)cc4[C@@H]2C3=O)O1
-- reply 107

-- ask Moving on to CNC1CCC(N(Cc2cccc(-c3ccncc3)c2)C(=O)c2sc3c(F)ccc(F)c3c2Cl)CC1 (stereo unspecified)
-- reply 105

---

Test system: NOMO1
Experiment: cell viability relative to DMSO control; higher = less cytotoxic
Details: RPMI 5 mM glucose + 10% FBS; 48 h; 15.4 µM
Assay endpoint: cell viability (%)
Please give a number only; it is taken to be in %.

See these solved cases before continuing.
> print(dat)
                                   molecule  test.result
1  CC1(C)O[C@@H]2C[C@H]3[C@@H]4CCC5=CC(=O)C=C[C@]5(C)[C@H]4[C@@H](O)C[C@]3(C)[C@]2(C(=O)CO)O1         87.8
2  C[C@]12CCC(=O)C=C1CC[C@@H]1[C@@H]2CC[C@@]2(C)[C@H]1CC[C@]2(C)O         87.7
3  COc1ccc(C2CNC(=O)C2)cc1OC1CCCC1 (stereo not given)         91.8
4  N=C(NCCCCCCNC(=N)NC(=N)Nc1ccc(Cl)cc1)NC(=N)Nc1ccc(Cl)cc1         87.4

-- ask Query the reported cell viability for NOMO1; item: S=P(N1CC1)(N1CC1)N1CC1
-- reply 90.2
